system: NDM-1 E. coli XJ141026; assay: MIC, broth microdilution; type: cell-based; settings: Escherichia coli; MHB, 5 × 10^5 CFU/mL, 16 h, 37 °C; read-out: MIC
RESULT TYPE: MIC (µg/mL)
I only need the number, in µg/mL, no unit after it.

{"columns": ["STRUCTURE STRING", "MIC / µg/mL"],
 "data": [
  ["C[C@@H](O)[C@H]1C(=O)N2C(C(=O)O)=C(SCCN=CN)C[C@H]12", 16]
]}

Lab note: next molecule to report on.
Req: I would be grateful if you could share the reported MIC for C[C@@H](O)[C@H]1C(=O)N2C(C(=O)O)=C(S[C@@H]3CN[C@H](C(=O)N(C)C)C3)[C@H](C)[C@H]12 .
Resp: 64
